Reported normalized analyte binding to RBD2 held by the immobilized ligand values for the following binders.
experimental target: SARS-CoV-2 spike protein receptor binding domain (RBD2) (SARS-CoV-2, UniProt P0DTC2 319-537)
protocol summary: SPR sandwich binning, ligand H01
// no unit string in output, number only

response.value for E01 IgG1 (antibody, V domains shown, also called E1) VH: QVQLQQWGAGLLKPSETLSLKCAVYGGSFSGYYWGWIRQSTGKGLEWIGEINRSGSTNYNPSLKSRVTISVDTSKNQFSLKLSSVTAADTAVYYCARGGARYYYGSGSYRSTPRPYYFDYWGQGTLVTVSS VL: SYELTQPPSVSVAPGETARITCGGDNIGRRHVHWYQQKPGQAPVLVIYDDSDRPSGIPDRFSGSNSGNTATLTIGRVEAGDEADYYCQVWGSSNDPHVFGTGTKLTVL (field: normalized analyte binding to RBD2 held by the immobilized ligand) = 2.35

Let us move to another entry and its normalized analyte binding to RBD2 held by the immobilized ligand.
response.value for E08 IgG1 (antibody, V domains shown) VH: QVQLVQSGAEVKKPGSSVKVSCKASGGTFSSYAISWVRQAPGQGLEWMGGIIPIFGTANYAQKFQGRVTITADESTSTAYMELSSLRSEDTAVYYCARASGRWLQFWHYYGMDVWGQGTTVTVSS VL: SYVLTQPPSVSVAPGKTARITCGGNNIGWKSVHWYQQKPGQAPVLVVYDDSDRPSGIPERFSGSNSGNTATLTISRVEAGDEADYYCQVWDSSSDLVVFGGGTKLTVL (field: normalized analyte binding to RBD2 held by the immobilized ligand) = 0.13

FYI, the data here is from patent US12018066.
